// melting point lookup, one value per entry

{"compound": "CC[C@@H](C)[C@H](c1nc2ccccc2n1Cc1cn(-c2ccc(OC)cc2)nn1)N1C(=O)c2ccccc2C1=O [Compound 6i]", "result": "135 to 137 °C"}
{"compound": "COc1ccc(-n2cc(Cn3c([C@@H](C(C)C)N4C(=O)c5ccccc5C4=O)nc4ccccc43)nn2)cc1 [Compound 6n]", "result": "125 to 127 °C"}
{"compound": "CCOC(=O)Cn1cc(Cn2c([C@@H](CC(C)C)N3C(=O)c4ccccc4C3=O)nc3ccccc32)nn1 [Compound 6p]", "result": "147 to 149 °C"}

Lab note: measured melting point of CCCCCCn1cc(Cn2c([C@@H](CC(C)C)N3C(=O)c4ccccc4C3=O)nc3ccccc32)nn1 [Compound 6t] was 146 to 148 °C

Sure, the documented melting point for Cc1ccc(-n2cc(Cn3c([C@@H](C(C)C)N4C(=O)c5ccccc5C4=O)nc4ccccc43)nn2)cc1 [Compound 6o] is 169 to 171 °C

CC[C@@H](C)[C@H](c1nc2ccccc2n1Cc1cn(-c2ccc(C)cc2)nn1)N1C(=O)c2ccccc2C1=O [Compound 6j] has a reported melting point of 198 to 201 °C

Given item CC[C@@H](C)[C@H](c1nc2ccccc2n1Cc1cn(-c2ccccc2)nn1)N1C(=O)c2ccccc2C1=O [Compound 6f] , the value recorded as its melting point is 211 to 213 °C
